# Activity values compiled below
# Test system: Oryza sativa
# Assay remarks: Relieving activity against bensulfuron-methyl induced injury to Oryza sativa (rice) assessed as growth rate at 1 uM (Rbv = 46 to 53%)
# Type: functional
Give just the numeric value; % need not be written.

Worked cases, Activity given:
Structure notation: C[C@@H](NC(=O)Nc1ccc(Cl)c(Cl)c1)c1ccccc1
Reading unit: %
Measured number: 66

Structure notation: CC(=O)c1ccccc1NC(=O)N[C@@H](C)c1ccccc1
Reading unit: %
Measured number: 65

Structure notation: CC(C)c1cccc(NC(=O)N[C@@H](C)c2ccccc2)c1
Reading unit: %
Measured number: 55

Structure notation: CCCCc1ccc(NC(=O)N[C@H](C)c2ccccc2)cc1
Reading unit: %
Measured number: 38

Structure notation: C[C@H](NC(=O)Nc1ccc(I)cc1)c1ccccc1
Reading unit: %
Measured number: 85

We next turn to a different compound, shown below.
Please look up its Activity: `C[C@H](NC(=O)Nc1cccc(I)c1)c1ccccc1` 83

----------
# Test system: Oryza sativa
# Assay remarks: Effect on Oryza sativa (rice) assessed as growth rate at 1 uM relative to control
# Type: organism-based
# Condition set: in vivo
Test readout: Activity (%)
Give just the numeric value; % need not be written.

Structure notation: C[C@@H](NC(=O)Nc1c(Cl)cccc1Cl)c1ccccc1
Reading unit: %
Activity: 99

Find Activity (Oryza sativa) for the entry `Cc1ccccc1NC(=O)N[C@@H](C)c1ccccc1` 99

Try this compound too: `CCc1cccc(CC)c1NC(=O)N[C@@H](C)c1ccccc1` 93

Try this compound too: `C[C@@H](NC(=O)Nc1cccc(Br)c1)c1ccccc1` 100

Try this compound too: `C[C@H](NC(=O)Nc1c(F)cccc1F)c1ccccc1` 99

Try this compound too: `CC(C)c1cccc(NC(=O)N[C@@H](C)c2ccccc2)c1` 84

Try this compound too: `C[C@@H](NC(=O)Nc1cc(Cl)cc(Cl)c1)c1ccccc1` 99

Try this compound too: `C[C@H](NC(=O)Nc1ccc(Br)cc1)c1ccccc1` 97

Try this compound too: `C[C@@H](NC(=O)Nc1ccccc1F)c1ccccc1` 95

Try this compound too: `C[C@@H](NC(=O)Nc1ccccc1C(F)(F)F)c1ccccc1` 95

Try this compound too: `CCCCc1ccc(NC(=O)N[C@H](C)c2ccccc2)cc1` 32

Try this compound too: `C[C@@H](NC(=O)Nc1ccc(F)cc1)c1ccccc1` 96

Try this compound too: `C[C@H](NC(=O)Nc1cc(F)cc(F)c1)c1ccccc1` 99

----------
# Assay remarks: Hydrophobicity, log K of the compound
# Assay type: physicochemical
# Condition set: octanol/water
Test readout: log K
Simply state the number, no unit and no words.

Worked cases, log K given:
Structure notation: C[C@H](NC(=O)Nc1ccc(F)c(F)c1)c1ccccc1
log K: 0.398

Structure notation: C[C@@H](NC(=O)Nc1cc(C(F)(F)F)ccc1F)c1ccccc1
log K: 0.64

Structure notation: C[C@H](NC(=O)Nc1ccc(I)cc1)c1ccccc1
log K: 0.556

Structure notation: CCc1cccc(CC)c1NC(=O)N[C@@H](C)c1ccccc1
log K: 0.523

Structure notation: CC(C)c1ccccc1NC(=O)N[C@H](C)c1ccccc1
log K: 0.487

Structure notation: COc1cccc(NC(=O)N[C@@H](C)c2ccccc2)c1
log K: 0.277

We next turn to a different compound, shown below.
Please look up its log K: `COc1ccccc1NC(=O)N[C@H](C)c1ccccc1` 0.343

# credit: ChEMBL document CHEMBL3045406
